The following compounds have recorded MIC on Helminthosporium oryzae IFO-7503.
experimental readout: MIC (µg/mL)

[[record]]
compound = "CCCCCCCCCCCCCCOP(=O)([O-])OCC[N+](C)(C)C"
result_number = 12.5

[[record]]
compound = "CCCCCCCCCCCCCCCCCCOP(=O)([O-])OCC[N+](C)(C)C"
result_number = 50

[[record]]
compound = "CCCCCCCC/C=C\\CCCCCCCCOP(=O)([O-])OCC[N+](C)(C)C [Production Example 3, Oleyl 2-trimethylammonioethyl phosphate]"
result_number = 12.5

[[record]]
compound = "CCCCCCCC/C=C\\CCCCCCCCOP(=O)([O-])OCC[n+]1ccccc1 [Production Example 4, Oleyl 2-pyridinioethyl phosphate]"
result_number = 50

[[record]]
compound = "CCCCCCCCCCCCCCOP(=O)([O-])OCC[n+]1ccccc1 [Production Example 2, Tetradecyl 2-pyridinioethyl phosphate]"
result_number = 25

